# studyTarget: Monoglyceride lipase (Homo sapiens) (UniProt Q99685)
# Sequence (Q99685 whole entry): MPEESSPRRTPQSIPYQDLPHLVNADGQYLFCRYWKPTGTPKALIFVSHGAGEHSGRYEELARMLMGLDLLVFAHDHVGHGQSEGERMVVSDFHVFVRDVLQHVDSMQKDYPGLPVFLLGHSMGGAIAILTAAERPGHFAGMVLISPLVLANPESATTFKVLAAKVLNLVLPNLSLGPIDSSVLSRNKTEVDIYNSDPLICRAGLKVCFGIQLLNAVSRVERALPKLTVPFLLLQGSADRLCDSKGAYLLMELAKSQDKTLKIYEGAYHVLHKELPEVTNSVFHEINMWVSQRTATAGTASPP
# assayDetails: Inhibition of His-tagged human MAGL expressed in Escherichia coli BL21(DE3) assessed as reduction in arachidonic acid production from 2-arachidonoylglycerol at 10 uM pre-incubated for 60 mins by mass spectrometry
The entries below come with measured inhibition values attached.
Respond with the bare value in %.

Observe how each entry below is paired with its result.
compound	studyTarget	inhibition (%)
O=C1CC(N2CCN(c3ccccc3)CC2)CN1c1ccc(Oc2ccccc2)cc1 (centres undefined)	Monoglyceride lipase (Homo sapiens) (UniProt Q99685)	37
O=C1CCCN1c1ccc(Oc2ccccc2)cc1	Monoglyceride lipase (Homo sapiens) (UniProt Q99685)	10
Cc1ncccc1-c1cc(F)cc(N2C[C@@H](N3CCN(c4ncccn4)CC3)CC2=O)c1	Monoglyceride lipase (Homo sapiens) (UniProt Q99685)	39

Now examine the next entry.
// fetch inhibition given entry Cc1cnc(C(=O)N2CCN(C3CC(=O)N(c4ccc(Oc5ccccc5)cc4)C3)CC2)s1 (centres undefined)
38
